test: Phase 1 SAD plasma pharmacokinetics; assay type: in vivo, human; conditions: human, plasma, oral; after single dosing, across SAD cohorts
OBSERVATION_TYPE: half-life

Task: Answer with the recorded half-life of Cn1c(=O)n([C@@H]2CCC(=O)NC2=O)c2cccc(C#CCOC3CCN(C[C@H]4CC[C@H](n5cc(NC(=O)c6cnn7ccc(N8C[C@H]9C[C@@H]8CO9)nc67)c(C(F)F)n5)CC4)CC3)c21 only.
Result: 25 to 40 h

* * *

assay: Phase 1 SAD plasma pharmacokinetics; type: in vivo, human; settings: human, plasma; SAD 6, single oral dose 1000 mg, healthy volunteers
OBSERVATION_TYPE: Tmax
Phrase the answer as number then unit, nothing more needed.

Task: Note Tmax for the compound shown: Cn1c(=O)n([C@@H]2CCC(=O)NC2=O)c2cccc(C#CCOC3CCN(C[C@H]4CC[C@H](n5cc(NC(=O)c6cnn7ccc(N8C[C@H]9C[C@@H]8CO9)nc67)c(C(F)F)n5)CC4)CC3)c21 [Compound A]
Result: 20 h

* * *

experiment: Solubility; type: physicochemical; conditions: FaSSIF, pH 6.5, fassif; read-out: Solubility in bio-relevant fluid FaSSIF
OBSERVATION_TYPE: solubility

Task: Provide measured solubility value, entry: Cn1c(=O)n([C@@H]2CCC(=O)NC2=O)c2cccc(C#CCOC3CCN(C[C@H]4CC[C@H](n5cc(NC(=O)c6cnn7ccc(N8C[C@H]9C[C@@H]8CO9)nc67)c(C(F)F)n5)CC4)CC3)c21
Result: < 12 mg/mL

* * *

assay: Phase 1 MAD plasma pharmacokinetics; type: in vivo, human; details: human, plasma, oral; steady-state (Day 14), 25 mg QD; median (range)
OBSERVATION_TYPE: Tmax at 14 days (h)
Kindly provide the numeric value in h only, without the unit symbol.

Task: Give reported Tmax at 14 days value for Cn1c(=O)n([C@@H]2CCC(=O)NC2=O)c2cccc(C#CCOC3CCN(C[C@H]4CC[C@H](n5cc(NC(=O)c6cnn7ccc(N8C[C@H]9C[C@@H]8CO9)nc67)c(C(F)F)n5)CC4)CC3)c21
Result: 8

* * *

assay: Phase 1 MAD plasma pharmacokinetics; assay type: in vivo, human; settings: human, plasma, oral; steady-state (Day 14), 100 mg QD; median (range)
OBSERVATION_TYPE: Tmax at 14 days (h)
Give just the numeric value; h need not be written.

Task: Output Tmax at 14 days of Cn1c(=O)n([C@@H]2CCC(=O)NC2=O)c2cccc(C#CCOC3CCN(C[C@H]4CC[C@H](n5cc(NC(=O)c6cnn7ccc(N8C[C@H]9C[C@@H]8CO9)nc67)c(C(F)F)n5)CC4)CC3)c21
Result: 8

* * *

assay: Phase 1 MAD plasma pharmacokinetics; assay type: in vivo, human; conditions: human, plasma, oral; steady-state (Day 14), 50 mg QD; geometric mean (% CV)
OBSERVATION_TYPE: Cmax at 14 days (ng/mL)
Quick note: give the figure in ng/mL, leave out the unit.

Task: Could you please provide reported Cmax at 14 days for Cn1c(=O)n([C@@H]2CCC(=O)NC2=O)c2cccc(C#CCOC3CCN(C[C@H]4CC[C@H](n5cc(NC(=O)c6cnn7ccc(N8C[C@H]9C[C@@H]8CO9)nc67)c(C(F)F)n5)CC4)CC3)c21 ? Thanks!
Result: 12

* * *

assay: Phase 1 MAD plasma pharmacokinetics; type: in vivo, human; conditions: human, plasma, oral; steady-state (Day 14), 25 mg QD; geometric mean (% CV); read-out: Ctrough
OBSERVATION_TYPE: concentration at 24 h

Task: Report concentration at 24 h, nothing else, for this compound: Cn1c(=O)n([C@@H]2CCC(=O)NC2=O)c2cccc(C#CCOC3CCN(C[C@H]4CC[C@H](n5cc(NC(=O)c6cnn7ccc(N8C[C@H]9C[C@@H]8CO9)nc67)c(C(F)F)n5)CC4)CC3)c21 [Compound A]
Result: 5.03 ng/mL

* * *

assay: Phase 1 MAD plasma pharmacokinetics; type: in vivo, human; settings: human, plasma, oral; steady-state (Day 14), 200 mg QD; median (range)
OBSERVATION_TYPE: Tmax at 14 days
# answer = value followed by unit

Task: # return recorded Tmax at 14 days for entry Cn1c(=O)n([C@@H]2CCC(=O)NC2=O)c2cccc(C#CCOC3CCN(C[C@H]4CC[C@H](n5cc(NC(=O)c6cnn7ccc(N8C[C@H]9C[C@@H]8CO9)nc67)c(C(F)F)n5)CC4)CC3)c21 [Compound A]
Result: 8 h
